system: P12-Ichikawa; test: cell viability relative to DMSO control; higher = less cytotoxic; settings: RPMI 5 mM glucose + 10% FBS; 48 h; 0.569 µM
MEASURE_NAME: cell viability (%)
Kindly answer with a numeric value in %, unit omitted.

State the recorded cell viability for this entry: CCCCCCCCCCCCCC(=O)N[C@H](CO)[C@H](O)c1ccc([N+](=O)[O-])cc1 89.1

Suppose we examine the compound CN(C)CC(C)(C)CNc1nn2c(-c3ccccc3)nnc2cc1C1CCC1 ; what cell viability value has been reported? 87.8

Bench note: what cell viability did CC(C)c1cc(C(C)C)c(CC(=O)N[S+](=O)([O-])Oc2c(C(C)C)cccc2C(C)C)c(C(C)C)c1 show? 109

Any idea what its cell viability is? The compound is COc1ccc(C(=O)CC2(O)C(=O)Nc3c(Cl)ccc(Cl)c32)cc1 (configuration not stated) 118

Requested field: cell viability. Item: CC12CC3CC(C)(C1)CC(N)(C3)C2 131

cell viability for CC[C@H]1OC(=O)[C@H](C)C(=O)[C@H](C)[C@@H](O[C@H]2O[C@H](C)C[C@H](N(C)C)[C@H]2O)[C@](C)(OC)C[C@@H](C)C(=O)[C@H](C)[C@H]2N(CCCCn3cnc(-c4cccnc4)c3)C(=O)O[C@]12C ? 88.3

Given the entry CCCCOc1c(C(=O)c2c(F)cc(C)cc2F)cnc2[nH]ncc12 , report its measured cell viability. 103

Query: cell viability; subject: CN1CCCN(CC1)C2=CC=C3C(=O)\C(=C/4SC5=C(C=CC=C5)N4C3=N2)C(=O)NCC6=CN=C(C)C=N6 95.9

Return reported cell viability; argument: CC(C)(O)CC(=O)NCCn1ccc2ncnc(Nc3ccc(Oc4cccc(C(F)(F)F)c4)c(Cl)c3)c21 107

# cell viability lookup, item CCCNC(=O)Nc1ccc(Oc2ncnc3cc(OC)c(OC)cc23)cc1Cl 87.6

Consider the compound COc1cc(C(=O)N2CC[C@@H](O)[C@@H](N)C2)cc2nc(-c3cc4ccccc4n3CC3CC3)n(C)c12 and give its measured cell viability. 111

Recorded cell viability of Nc1ncnc2c1ncn2[C@@H]1O[C@H](CO)C[C@H]1O , please. 93

Entry CC1=CC(=CC(=C1C\C2=N\CCN2)C)C(C)(C)C has what cell viability? 111

Reported cell viability for O=P(O)(O)C(O)(Cn1ccnc1)P(=O)(O)O : what is it? 136

Which cell viability value is on record for COc1cc[nH]c2ncc(C(=O)C(=O)N3CCN(C(=O)c4ccccc4)C[C@H]3C)c1-2 ? 122

Data request, read-out cell viability, for OCC(O)C(O)C(O)CO (configuration not stated) 99

Tell me the measured cell viability of C[C@@H]1CCO[C@H]2CN\3/C=C(/C(=O)NCC4=C(F)C=C(F)C=C4)C(=O)\C(=C3C(=O)N12)O , please. 111
